# procedure text: Cell signaling CRE-BLA (Fsk stim)
# test conditions: CHO CRE-bla reporter, forskolin EC10, beta-lactamase ratio; series mostly up to 38.2 µM
Hit rate of the full screen: of about 71,000 compounds, about 1,800 (2.5%) were called active. Inconclusive results (about 26%) are left out. Calls follow the shape of the dose curve; as a rule, active = well fitted activation curve with a large enough effect in the signal ratio, with a control signal flat (not every such curve was filed as active); inconclusive = small, poorly fitted or top-dose-only effect, or effect the other way, or a change in a side signal; inactive = flat fitted curve, though single readings scatter; the % refers to the signal ratio. This excerpt belongs to a sample that is enriched for actives.
Entry note: the call must match one of TRUE (active), FALSE (inactive)

>>> df
                                   molecule  group
0                         CCCCCCCCCCCC(=O)O  FALSE
1       COc1ccc(-c2nc(-c3ccccc3)no2)c(OC)c1  FALSE
2  CCn1cc(C(=O)NCc2ccc3c(c2)OCO3)c2cc(OC)c(OC)cc2c1=O   TRUE
3  O=C(CN1C(=O)C2C3C=CC(C3)C2C1=O)NCC1COc2ccccc2O1 (stereo not drawn)  FALSE
4  COC(=O)C1(C)C=CC2(CCCCC2)N1C(C)=O (stereo not drawn)  FALSE
5                         COc1ccc(N)c(OC)c1  FALSE
6              CCCCNC(=O)CSc1nccn1Cc1ccccc1  FALSE
7  CCn1c(SCC(=O)Nc2cc(C)ccc2C)nnc1-c1cnccn1   TRUE
8             O=C(Nc1cccnc1)c1ccc2c(c1)OCO2  FALSE
9      CC(=O)Nc1nc(C)c(Cc2ccccc2)c(=O)[nH]1  FALSE

Q: Query: recorded result category for `CCOC(=O)C1CCN(C(=O)Nc2ccc(Cl)cc2)CC1` in this test
Ans: FALSE

Q: Query: recorded result category for `COC(=O)[C@H]1C[C@@H]1[C@H](NC(=O)Oc1ccc(F)cc1)c1ccccc1` in this test
Ans: FALSE

Q: Query: recorded result category for `CCCc1nc2ccccc2c(C(=O)OCc2nnc(-c3cc(OC)c(OC)c(OC)c3)o2)c1CC` in this test
Ans: TRUE

Q: Query: recorded result category for `CS(=O)(=O)N(CC(=O)N1CCN(Cc2ccc3c(c2)OCO3)CC1)c1ccc2c(c1)OCO2` in this test
Ans: FALSE

====

# procedure text: Cell signaling CRE-BLA (Fsk stim); also: potency is read from the fitted curve at half-maximal effect
# test conditions: CHO CRE-bla reporter (cAMP response element driving beta-lactamase), forskolin EC10, beta-lactamase ratio; series mostly up to 38.2 µM
About 1,800 (2.5%) of roughly 71,000 compounds were called active. Another 26% or so got no clear call; they are omitted. This is one part of a sample in which actives are shown more often than they occur.
parameter: Potency

>>> df
                                 mol_smiles    value_measured
0  c1ccc(-c2oc3ncnc(N4CCOCC4)c3c2-c2ccccc2)cc1          inactive
1              c1cnn(-c2cc(N3CCOCC3)ncn2)c1          inactive
2     O=c1c2[nH]c3ccc(Cl)cc3c2ncn1Cc1ccccn1  3.98 µM (active)
3  COC(=O)C1=C(C)N(C)C(C)=C(C(=O)OC)C1c1cccc(Br)c1          inactive
4  COC(=O)c1ccc(Oc2nc(Nc3ccc(F)cc3)nc(N3CCCC3)n2)cc1  3.16 µM (active)

Q: Query (compound): `COc1ccc(O)c(C=Nc2cc(C)on2)c1` ; field requested: Potency
Ans: inactive
